- Test system: Poliovirus 1
- experimental_details: Antiviral activity against Poliovirus 1 infected in human HeLa-RW cells assessed as protection against virus-induced cytopathic effect after 3 to 4 days by crystal violet staining-based spectrophotometric method
- Type: functional, cell-based
- condition_parameters: Enterovirus C
This section presents compounds with their documented EC50 values.

[Q] # EC50 lookup, item CC(C)n1ncc2c(C(=O)Nc3ccccc3F)cc(-c3ccccc3)nc21
[A] > 25 µM

[Q] Record request: EC50 value, item CC(C)n1ncc2c(C(=O)Nc3ncccn3)cc(-c3ccsc3)nc21
[A] > 10 µM

[Q] Look up EC50 for this compound: CC(C)n1ncc2c(C(=O)Nc3cccc(F)c3F)cc(-c3cccs3)nc21
[A] > 25 µM

[Q] Form field: reported EC50 of CC(C)n1ncc2c(C(=O)Nc3ccccc3F)cc(-c3cccnc3)nc21
[A] > 25 µM

[Q] Please give the measured EC50 for this compound: CC(C)n1ncc2c(C(=O)Nc3ccc(F)cc3)cc(-c3ccco3)nc21
[A] > 25 µM

[Q] Name the reported EC50 value associated with the compound CC(C)n1ncc2c(C(=N)Nc3cccnc3)cc(-c3cccs3)nc21
[A] > 10 µM

[Q] Param item = CC(C)n1ncc2c(C(=O)Nc3ccncc3)cc(-c3cccs3)nc21 ; retrieve measured EC50.
[A] > 10 µM

[Q] Item under review: CC(C)n1ccc2c(C(=O)Nc3ccccn3)cc(-c3cccs3)nc21 . Reported EC50?
[A] > 10 µM

# evaluate next
[Q] State the recorded EC50 for this entry: CC(C)n1ncc2c(NC(=O)c3cc(-c4cccs4)nc4c3cnn4C(C)C)cc(-c3cccs3)nc21
[A] > 10 µM
